Data provenance: paper PMC10259452

- CONDITION_SET: mouse, microsomes, pH 7.4
Would you mind telling me the reported microsomal stability Clin of each entry?

Sample `CSc1ncc(Cl)c(C(=O)Nc2sc3c(c2C(=O)NCc2ccccc2)CCCC3)n1` — what was its microsomal stability Clin?
127/126/267/115 μL/min/mg

Looking for the measured microsomal stability Clin of CC1CCCN1C(=O)c1c(NC(=O)c2cccnc2)sc2c1CCCC2 (stereo not shown) , can you help?
71/67/97/53 μL/min/mg

Returns the measured microsomal stability Clin for the input compound. Input: `CN1CCN(CC(=O)Nc2sc3c(c2C(=O)NCc2ccccc2)CCCC3)CC1`
319/214/115/132 μL/min/mg

What value of microsomal stability Clin has been reported for the following compound? `C[C@@H]1CCN(C(=O)c2c(NC(=O)c3cccnc3)sc3c2CCCC3)[C@H](C)C1`
414/404/507/369 μL/min/mg
